# assayed system: T1, HLA-A*0201 on T2 cells (human)
# T1 construct: whole, on cells; Class I MHC on the surface of T2 cells, detected with a fluorescent anti-A2 antibody; beta2-microglobulin is not mentioned for this assay; also called MHC class I (A2 allele)
# test details: T2 cells, wild-type/analog half-maximal binding
Numbered stars: 1 amine (or outer) side, 2 acyl side, 3 side chain; on linkers, the order of the positions; unused ones are H or OH. Square brackets hold non-standard residues; d marks the D form. Ends that are not written are not given here. Tyr(Me) = O-methyl-Tyr, COc1ccc(C[C@H](N[*:1])C(=O)[*:2])cc1; Phe(4-NO2) = N[C@@H](Cc1ccc([N+](=O)[O-])cc1)C(=O)O; Bta = N[C@@H](Cc1csc2ccccc12)C(=O)O; Phg = N[C@H](C(=O)O)c1ccccc1
Measured Relative affinity (1/RA) values are reported for all entries that follow.

Sample answers from the record:
# binder, Relative affinity (1/RA)
measured = [
    ("FASEKIFYV [SSX2 41-49 (K41F)]", "1.5 1/RA"),
    ("[Phe(4-NO2)]ASEKIFYV (also called para-nitrophenylalanine analog) [SSX2 41-49 (K41(Phe-4NO2))]", "1.1 1/RA"),
    ("YASEKIFYV [SSX2 41-49 (K41Y)]", "1.7 1/RA"),
]

Quick note, Relative affinity (1/RA) for [Tyr(Me)]ASEKIFYV [SSX2 41-49 (K41(O-methyl Tyr))] landed at 0.8 1/RA

Looking up [Phg]ASEKIFYV [SSX2 41-49 (K41(Phg))] , I found its Relative affinity (1/RA) recorded as 2.5 1/RA

Lookup result for [Bta]ASEKIFYV [SSX2 41-49 (K41(b-(3-benzothienyl)Ala))] ; measured Relative affinity (1/RA): 0.6 1/RA
